From: patent US20220010020A1

system.name: T1, FGFR2-IIIb (fibroblast growth factor receptor 2 IIIb splice form) (human, UniProt P21802 22-377)
T1 construct: also called FGFR2b; KGFR
T1 chain: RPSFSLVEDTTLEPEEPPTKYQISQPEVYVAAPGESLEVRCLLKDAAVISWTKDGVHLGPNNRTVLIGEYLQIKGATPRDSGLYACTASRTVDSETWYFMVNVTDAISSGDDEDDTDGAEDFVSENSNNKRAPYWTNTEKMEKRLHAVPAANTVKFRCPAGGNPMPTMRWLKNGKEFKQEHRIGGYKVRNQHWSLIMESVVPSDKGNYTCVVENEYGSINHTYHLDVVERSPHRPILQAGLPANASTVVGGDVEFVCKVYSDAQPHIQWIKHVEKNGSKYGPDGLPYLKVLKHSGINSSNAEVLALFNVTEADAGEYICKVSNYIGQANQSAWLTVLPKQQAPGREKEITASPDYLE
assay.procedure: blocking ELISA (potency), forced oxidation study
Examples of binders with documented % Potency (Assay 2), against Reference follow.
Write down the value, and be sure its unit follows.

Briefly, % Potency (Assay 2), against Reference measured for anti-FGFR2-IIIb antibody (afucosylated, humanized IgG1 monoclonal antibody), control sample incubated without hydrogen peroxide (antibody, V domains shown, also called αFGFR2b; Sample 1) VH: QVQLVQSGAEVKKPGSSVKVSCKASGYIFTTYNVHWVRQAPGQGLEWIGSIYPDNGDTSYNQNFKGRATITADKSTSTAYMELSSLRSEDTAVYYCARGDFAYWGQGTLVTVSS VL: DIQMTQSPSSLSASVGDRVTITCKASQGVSNDVAWYQQKPGKAPKLLIYSASYRYTGVPSRFSGSGSGTDFTFTISSLQPEDIATYYCQQHSTTPYTFGQGTKLEIKR : 89%

Reported % Potency (Assay 2), against Reference ( anti-FGFR2-IIIb antibody incubated with 0.1% hydrogen peroxide overnight at room temperature (force oxidized) (antibody, human IgG1, kappa, V domains shown, Same antibody as m1 after peroxide treatment; also called +0.1% H2O2; 0.1% H2O2) VH: QVQLVQSGAEVKKPGSSVKVSCKASGYIFTTYNVHWVRQAPGQGLEWIGSIYPDNGDTSYNQNFKGRATITADKSTSTAYMELSSLRSEDTAVYYCARGDFAYWGQGTLVTVSS VL: DIQMTQSPSSLSASVGDRVTITCKASQGVSNDVAWYQQKPGKAPKLLIYSASYRYTGVPSRFSGSGSGTDFTFTISSLQPEDIATYYCQQHSTTPYTFGQGTKLEIKR ) = 100%

Sample anti-FGFR2-IIIb antibody incubated with 0.01% hydrogen peroxide overnight at room temperature (force oxidized) (antibody, human IgG1, kappa, V domains shown, Same antibody as m1 after peroxide treatment; also called +0.01% H2O2; 0.01% H2O2) VH: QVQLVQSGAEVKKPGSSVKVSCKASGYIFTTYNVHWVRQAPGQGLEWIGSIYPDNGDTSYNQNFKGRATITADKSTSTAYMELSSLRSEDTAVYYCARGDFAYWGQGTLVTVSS VL: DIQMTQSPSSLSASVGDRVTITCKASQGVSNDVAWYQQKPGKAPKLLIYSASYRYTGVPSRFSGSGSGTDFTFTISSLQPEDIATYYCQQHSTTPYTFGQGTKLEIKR ; % Potency (Assay 2), against Reference observed: 106%

Given item anti-FGFR2-IIIb antibody incubated with 1.0% hydrogen peroxide overnight at room temperature (force oxidized) (antibody, human IgG1, kappa, V domains shown, Same antibody as m1 after peroxide treatment; also called +1.0% H2O2; 1.0% H2O2) VH: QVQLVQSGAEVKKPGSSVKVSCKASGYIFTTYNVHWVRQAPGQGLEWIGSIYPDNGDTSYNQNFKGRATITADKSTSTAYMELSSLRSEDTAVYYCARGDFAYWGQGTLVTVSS VL: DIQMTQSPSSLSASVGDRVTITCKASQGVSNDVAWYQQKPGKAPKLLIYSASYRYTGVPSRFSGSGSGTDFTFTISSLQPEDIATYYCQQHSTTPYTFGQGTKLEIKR , the value recorded as its % Potency (Assay 2), against Reference is 93%
